Source of measurements: patent EP4700040A1

- SYSTEM: Large subunit-rSCFV5 fusion protein
- Sequence (chain, as listed by the source): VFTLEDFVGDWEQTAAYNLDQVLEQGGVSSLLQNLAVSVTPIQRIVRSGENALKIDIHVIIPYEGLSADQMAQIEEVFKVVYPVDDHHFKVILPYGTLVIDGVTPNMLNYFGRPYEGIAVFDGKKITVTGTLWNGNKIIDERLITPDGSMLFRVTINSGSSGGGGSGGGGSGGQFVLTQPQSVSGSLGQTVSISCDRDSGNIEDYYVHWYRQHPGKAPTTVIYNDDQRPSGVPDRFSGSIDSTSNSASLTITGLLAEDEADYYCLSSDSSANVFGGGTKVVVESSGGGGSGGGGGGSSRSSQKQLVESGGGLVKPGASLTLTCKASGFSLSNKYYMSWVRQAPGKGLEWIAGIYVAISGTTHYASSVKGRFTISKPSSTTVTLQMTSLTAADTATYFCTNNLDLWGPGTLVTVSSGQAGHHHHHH
- ASSAY_COMMENT: cell-based or functional assay
MEASURE: log10 of RLU, PCT- (log10 of the value in RLU)

[[record]]
binder = "VEGYRLFNRVG (peptide, part only; not given: rSCFV18 scFv part, part only) [rSCFV18-small subunit mutant fusion protein RB122]"
measure = "log10 of RLU, PCT-"
value_measured = 3.41

[[record]]
binder = "VSGYRIFEKKW (peptide, part only; not given: rSCFV18 scFv part, part only) [rSCFV18-small subunit mutant fusion protein RC-113]"
measure = "log10 of RLU, PCT-"
value_measured = 3.07

[[record]]
binder = "VSGYRLFDRKS (peptide, part only; not given: rSCFV18 scFv part, part only) [rSCFV18-small subunit mutant fusion protein RC-228]"
measure = "log10 of RLU, PCT-"
value_measured = 3.48

[[record]]
binder = "VEGYRLFNRVS (peptide, part only; not given: rSCFV18 scFv part, part only) [rSCFV18-small subunit mutant fusion protein RB027]"
measure = "log10 of RLU, PCT-"
value_measured = 3.64

[[record]]
binder = "VDGYRLFEKVS (peptide, part only; not given: rSCFV18 scFv part, part only) [rSCFV18-small subunit mutant fusion protein RC-263]"
measure = "log10 of RLU, PCT-"
value_measured = 2.84

[[record]]
binder = "VEGYRLFDRVW (peptide, part only; not given: rSCFV18 scFv part, part only) [rSCFV18-small subunit mutant fusion protein RB128]"
measure = "log10 of RLU, PCT-"
value_measured = 2.82

[[record]]
binder = "VEGYRLFDRKW (peptide, part only; not given: rSCFV18 scFv part, part only) [rSCFV18-small subunit mutant fusion protein RB186]"
measure = "log10 of RLU, PCT-"
value_measured = 2.77

[[record]]
binder = "VEGYRLHEKIS (peptide, part only; not given: rSCFV18 scFv part, part only) [rSCFV18-small subunit mutant fusion protein RA128]"
measure = "log10 of RLU, PCT-"
value_measured = 2.59

[[record]]
binder = "VDGWRLHEKIS (peptide, part only; not given: rSCFV18 scFv part, part only) [rSCFV18-small subunit mutant fusion protein RA141]"
measure = "log10 of RLU, PCT-"
value_measured = 2.67

[[record]]
binder = "VSGYRIFEKKS (peptide, part only; not given: rSCFV18 scFv part, part only) [rSCFV18-small subunit mutant fusion protein RC-129]"
measure = "log10 of RLU, PCT-"
value_measured = 3.32

[[record]]
binder = "VEGYRLFDRKS (peptide, part only; not given: rSCFV18 scFv part, part only) [rSCFV18-small subunit mutant fusion protein RC-218]"
measure = "log10 of RLU, PCT-"
value_measured = 2.96

[[record]]
binder = "VNGWRIFDKKS (peptide, part only; not given: rSCFV18 scFv part, part only) [rSCFV18-small subunit mutant fusion protein RC-242]"
measure = "log10 of RLU, PCT-"
value_measured = 3.18

[[record]]
binder = "VEGYRIFEKKW (peptide, part only; not given: rSCFV18 scFv part, part only) [rSCFV18-small subunit mutant fusion protein RC-286]"
measure = "log10 of RLU, PCT-"
value_measured = 2.64

[[record]]
binder = "VEGYRLFKREL (peptide, part only; not given: rSCFV18 scFv part, part only) [rSCFV18-small subunit mutant fusion protein RB152]"
measure = "log10 of RLU, PCT-"
value_measured = 2.96

[[record]]
binder = "VEGYRLFEKVW (peptide, part only; not given: rSCFV18 scFv part, part only) [rSCFV18-small subunit mutant fusion protein RB172]"
measure = "log10 of RLU, PCT-"
value_measured = 3.04

[[record]]
binder = "VSGWRIHEKIS (peptide, part only; not given: rSCFV18 scFv part, part only) [rSCFV18-small subunit mutant fusion protein RA120]"
measure = "log10 of RLU, PCT-"
value_measured = 3.33

